Molecular target: human BACE1 (Homo sapiens)
Experiment: Fluorescent kinetic assay, inhibition of BACE1 (WABC-6 peptide substrate)
Type: biochemical
Conditions: 10 nM enzyme, 25 μM substrate WABC-6, pH 4.5, room temperature; read-out: IC50 (μM) BACE1
OBSERVATION_TYPE: IC50

INSERT INTO measurements (molecule, reported_value) VALUES
  ('Cc1cc(C2(c3cccc(-c4cncnc4)c3)N=C(N)N(C)C2=O)ccc1OCCCOc1ccccc1 (stereo not drawn)', '0.01 to 0.1 µM'),
  ('CN1C(=O)C(c2cccc(-c3cccnc3)c2)(c2ccc(OC(F)(F)F)c(C(F)(F)F)c2)N=C1N (stereo not drawn)', '0.01 to 0.1 µM'),
  ('CN1C(=O)C(c2ccc(OC(F)(F)F)cc2)(c2ccc(F)c(-c3cccnc3)c2)N=C1N (stereo not drawn)', '0.01 to 0.1 µM'),
  ('COc1ccc([C@@]2(c3ccc(F)c(-c4cncc(F)c4)c3)N=C(N)N(C)C2=O)cc1 [Example 142A]', '> 1 µM'),
  ('CN1CC(c2ccc(OC(F)(F)F)cc2)(c2ccc(F)c(-c3cccnc3F)c2)N=C1N (stereo not drawn)', '0.11 to 1 µM'),
  ('Cc1cc(C2(c3ccc(F)c(-c4cncnc4)c3)N=C(N)N(C)C2=O)ccc1OCCF (stereo not drawn)', '0.01 to 0.1 µM');

Could you tell me which IC50 is on file for CCCOc1ccc(C2(c3cccc(-c4cncnc4)c3)N=C(N)N(C)C2=O)cc1C (stereo not drawn) ?
0.01 to 0.1 µM

Quick one: IC50 for Cc1cc(C2(c3cccc(-c4cncnc4)c3)N=C(N)N(C)C2=O)ccc1OCCC1CCCCC1 (stereo not drawn) ?
0.11 to 1 µM

Which IC50 value belongs to COc1ccc(C2(c3ccc(F)c(-c4cncc(F)c4)c3)N=C(N)N(C)C2=O)cc1C (stereo not drawn) ?
0.01 to 0.1 µM

Look at this molecule and give its reported IC50. CN1C(=O)[C@](c2ccc(OC(F)F)cc2)(c2ccc(F)c(-c3ccc(F)nc3)c2)N=C1N [Example 134A]
0.11 to 1 µM

// returns reported IC50 for input CCN1C(=O)C(c2cccc(-c3cccnc3)c2)(c2ccc(OC)c(C)c2)N=C1N (stereo not drawn)
0.01 to 0.1 µM

----------
Reported pIC50 values for the following compounds.
Molecular target: human BACE1 (Homo sapiens, UniProt P56817)
Sequence (P56817 46-501): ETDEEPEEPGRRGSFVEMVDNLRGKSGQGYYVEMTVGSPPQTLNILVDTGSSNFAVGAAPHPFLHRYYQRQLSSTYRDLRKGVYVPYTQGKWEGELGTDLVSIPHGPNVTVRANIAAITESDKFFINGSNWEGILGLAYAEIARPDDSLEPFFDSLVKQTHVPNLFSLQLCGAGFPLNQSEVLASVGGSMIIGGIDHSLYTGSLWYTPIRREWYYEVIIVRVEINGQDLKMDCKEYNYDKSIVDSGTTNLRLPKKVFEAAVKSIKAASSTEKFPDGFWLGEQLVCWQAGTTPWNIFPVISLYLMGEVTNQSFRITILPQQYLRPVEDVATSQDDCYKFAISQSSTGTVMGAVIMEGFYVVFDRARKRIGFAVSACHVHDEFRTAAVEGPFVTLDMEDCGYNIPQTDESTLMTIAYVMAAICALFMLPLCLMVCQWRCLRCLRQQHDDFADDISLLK
Assay: Fluorescent kinetic assay, inhibition of BACE1 (WABC-6 peptide substrate);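 also: fluorescence monitored at 320 nm excitation and 420 nm emission every 40 s over 30 min, with the substrate cleavage rate taken from the linear slope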
Assay type: biochemical
pIC50: −log10 of the molar value.

Notebook entry, human BACE1 (Homo sapiens, UniProt P56817) assay: pIC50 of COc1ccc(C2(c3ccc(C#N)c(-c4cccnc4)c3)N=C(N)N(C)C2=O)cc1C (stereo not shown) = ?
6.00 to 6.96

Notebook entry, human BACE1 (Homo sapiens, UniProt P56817) assay: pIC50 of COc1ccc(C2(c3cccc(-c4cccnc4)c3)N=C(N)N(C)C2=O)cc1C#N (stereo not shown) = ?
6.00 to 6.96

Any idea what pIC50 came out for COc1ccc(C2(c3cccc(-c4cccnc4)c3)N=C(N)N(C)C2=O)cc1OC(C)C (stereo not shown) on human BACE1 (Homo sapiens, UniProt P56817)?
7.00 to 8.00

Record lookup: for human BACE1 (Homo sapiens, UniProt P56817), what pIC50 belongs to COc1ccc(C2(c3cccc(-c4cccnc4)c3)N=C(N)N(C)C2=O)cc1F (stereo not shown) ?
7.00 to 8.00

State its pIC50 on human BACE1 (Homo sapiens, UniProt P56817): CCOc1cc(C2(c3cccc(-c4cccnc4)c3)N=C(N)N(C)C2=O)ccc1OC (stereo not shown)
7.00 to 8.00

# returns recorded pIC50 (system: human BACE1 (Homo sapiens, UniProt P56817)) for COc1ccc([C@]2(c3cccc(-c4cccnc4F)c3)N=C(N)N(C)C2=O)cc1C [Example 102B]
7.00 to 8.00

Value wanted: pIC50 (human BACE1 (Homo sapiens, UniProt P56817)) of entry COc1ccc([C@@]2(c3cccc(-c4cccnc4F)c3)N=C(N)N(C)C2=O)cc1C [Example 102A]
6.00 to 6.96
